Biological target: human TLR9 (Homo sapiens)
Test: TLR9 inhibition reporter assay (HEK-Blue cells, SEAP reporter, ODN2006 stimulation)
Conditions: HEK-Blue cells overexpressing human TLR9, SEAP reporter, ODN2006 5 nM
measurement label: IC50 (nM)
// return numeric value only (unit: nM, not printed)

Sample COc1cc(-c2[nH]c3ccc(C4CCC(NC5(C)CC5)CC4)cc3c2C(C)C)cn2ncnc12 (stereo not shown) [Example 43] , system: human TLR9 (Homo sapiens). Its IC50 is 4370

human TLR9 (Homo sapiens) IC50 of Cc1cc(-c2[nH]c3ccc(C4CCN(C(=O)CN(C)C)C4)cc3c2C(C)C)cc(C)n1 (stereo not shown) [Example 591] is 1010

Recorded IC50 for COc1cc(-c2[nH]c3ccc(C4CCC(N5CCNC(=O)C5)CC4)cc3c2C(C)C)cn2ncnc12 (stereo not shown) [Example 71] on human TLR9 (Homo sapiens) was 4410

Response field IC50 (human TLR9 (Homo sapiens)) for item Cc1cc(-c2[nH]c3ccc(C4CCCNC4)cc3c2C(C)C)ccn1 (stereo not shown) [Example 185] : 1240

// returns IC50 for Cc1cc(-c2[nH]c3ccc(C4CN(CCS(C)(=O)=O)CCO4)cc3c2C(C)C)cc(C)n1 (stereo not shown) [Example 351] with human TLR9 (Homo sapiens); value = 48300

Lab note: molecule COc1cc(-c2[nH]c3ccc(CC4CN(C(C)C)C4)cc3c2C(C)C)cn2ncnc12 [Example 433] tested on human TLR9 (Homo sapiens); recorded IC50 was 2190

// assay human TLR9 (Homo sapiens), entry Cc1cc(-c2[nH]c3ccc(C4CCC(NCC(C)(C)O)CC4)cc3c2C(C)C)cn2ncnc12 (stereo not shown) [Example 104] , IC50 value = 6410

# IC50 measured on human TLR9 (Homo sapiens) for item COc1cc(-c2[nH]c3ccc(C4CCC(N5CC(C)OC(C)C5)CC4)cc3c2C(C)C)cn2ncnc12 (stereo not shown) [Example 41] = 2280

Form field IC50 for item Cc1c(-c2[nH]c3ccc(C4CN(CC(N)=O)C4)cc3c2C(C)C)cn2ncnc2c1C [Example 548] on human TLR9 (Homo sapiens): 8050

IC50 of COc1cc(-c2[nH]c3ccc(C4CNC(C)(C)CO4)cc3c2C(C)C)cn2ncnc12 (stereo not shown) [Example 369] , assay on human TLR9 (Homo sapiens), is 2620

Reported human TLR9 (Homo sapiens) IC50 for item Cc1cc(-c2[nH]c3ccc(C4CCCNC4)cc3c2C(C)C)ccn1 (stereo not shown) [Example 184] was 866

The reported IC50 value, human TLR9 (Homo sapiens), for Cc1c(-c2[nH]c3ccc(C4CCC(N5CC6(COC6)C5)CC4)cc3c2C(C)C)cn2ncnc2c1C (stereo not shown) [Example 113] reads 3250

Assay human TLR9 (Homo sapiens), sample COc1cc(-c2[nH]c3ccc(C4CCC(N(C)C(C)C)CC4)cc3c2C(C)C)cn2ncnc12 (single isomer, unassigned) [Example 6] , IC50 read: 1210

The value of IC50 recorded for CNC1CCC(c2ccc3[nH]c(-c4cn5cnnc5c(C)c4C)c(C(C)C)c3c2)CC1 (stereo not shown) [Example 525] when tested on human TLR9 (Homo sapiens) reads 4410

The molecule COc1cc(-c2[nH]c3ccc(C4CCC(N(C)C(C)C)C4)cc3c2C(C)C)cn2ncnc12 (single isomer, unassigned) [Example 277] , when measured on human TLR9 (Homo sapiens), yielded IC50 of 801

* * *

Biological target: human TLR9 (Homo sapiens)
Assay: TLR9 inhibition reporter assay (HEK-Blue cells, SEAP reporter, ODN2006 stimulation)
Details: HEK-Blue cells overexpressing human TLR9, SEAP reporter, ODN2006 5 nM
Note to self: IC50 under 9 µM means 1.0, ties and anything higher get 0.0.

Enquiry: Is it true that IC50 reported for Cc1cc(-c2[nH]c3ccc(C4CNCCO4)cc3c2C(C)C)cn2ncnc12 (stereo not drawn) [Example 281] is less than 9 µM?
Return: 1.0

Enquiry: Quick check: does Cc1cc(-c2[nH]c3ccc(C4CCC(C(=O)NC5CCN(C(C)C)CC5)CC4)cc3c2C(C)C)cn2ncnc12 (stereo not drawn) have IC50 under 9 µM?
Return: 1.0

Enquiry: is_below(IC50, 9 µM) for Cc1cc(-c2[nH]c3ccc(C4CCC5(CC4)NC(=O)NC5=O)cc3c2C(C)C)cc(C)n1 (stereo not drawn) ?
Return: 0.0

Enquiry: Determine whether this compound shows IC50 lower than 9 µM (ties excluded): COc1cc(-c2[nH]c3ccc(C4CCCN(CC(N)=O)C4)cc3c2C(C)C)cn2ncnc12 (stereo not drawn) [Example 225]
Return: 1.0

Enquiry: Is IC50 of CNC(=O)CN1CCCC(c2ccc3[nH]c(-c4cn5ncnc5c(C)c4C)c(C(C)C)c3c2)C1 (stereo not drawn) [Example 232] strictly below 9 µM?
Return: 0.0

Enquiry: is_below(IC50, 9 µM) for Cc1cc(-c2[nH]c3ccc(C4CCC(N)CC4)cc3c2C(C)C)cc(C)n1 (stereo not drawn) ?
Return: 1.0

Enquiry: Does this compound meet the criterion IC50 < 9 µM? Cc1cc(-c2[nH]c3ccc(C4CCC(N5CCCC(F)(F)C5)CC4)cc3c2C(C)C)cn(C)c1=O (stereo not drawn) [Example 467]
Return: 0.0

Enquiry: IC50 strictly < 9 µM for this compound? CNC1CCC(c2ccc3[nH]c(-c4cc(OC)c5ncnn5c4)c(C(C)C)c3c2)CC1 (single isomer, unassigned) [Example 145]
Return: 1.0

Enquiry: Dear reviewer, please state whether Cc1c(-c2[nH]c3ccc(C4CCC(N5CC(F)(F)C5)CC4)cc3c2C(C)C)cn2ncnc2c1C (stereo not drawn) [Example 25] has IC50 strictly beneath 9 µM.
Return: 0.0

Enquiry: # TODO verify IC50 < 9 µM strictly for this compound: CNC(=O)CN1CC(c2ccc3[nH]c(-c4cn5ncnc5c(C)c4C)c(C(C)C)c3c2)OCC1(C)C (stereo not drawn) [Example 388]
Return: 0.0

Enquiry: Would you kindly verify if IC50 of Cc1cc(-c2[nH]c3ccc(C4CCCNC4)cc3c2C(C)C)cc(C)n1 (stereo not drawn) [Example 187] is strictly less than 9 µM?
Return: 1.0

Enquiry: Say whether its IC50 is strictly beneath 9 µM. Entry: "CCCN1CC(c2ccc3[nH]c(-c4cn(C)c(=O)c(Cl)c4C)c(C(C)C)c3c2)C1"
Return: 1.0

Enquiry: Problem: For the compound Cc1cc(-c2[nH]c3ccc(C4CCC(O)CC4)cc3c2C(C)C)cc(C)n1 (single isomer, unassigned) [Example 171] , is IC50 under 9 µM?
Return: 0.0

Enquiry: Consider CNC1CCC(c2ccc3[nH]c(-c4cc(C)c5ncnn5c4)c(C(C)C)c3c2)CC1 (single isomer, unassigned) [Example 56] . Does its IC50 lie strictly below 9 µM?
Return: 1.0

* * *

I'd appreciate it if you could supply pIC50 values for the items below.
Target: human TLR9 (Homo sapiens, UniProt Q9NR96)
Sequence (Q9NR96 26-1032): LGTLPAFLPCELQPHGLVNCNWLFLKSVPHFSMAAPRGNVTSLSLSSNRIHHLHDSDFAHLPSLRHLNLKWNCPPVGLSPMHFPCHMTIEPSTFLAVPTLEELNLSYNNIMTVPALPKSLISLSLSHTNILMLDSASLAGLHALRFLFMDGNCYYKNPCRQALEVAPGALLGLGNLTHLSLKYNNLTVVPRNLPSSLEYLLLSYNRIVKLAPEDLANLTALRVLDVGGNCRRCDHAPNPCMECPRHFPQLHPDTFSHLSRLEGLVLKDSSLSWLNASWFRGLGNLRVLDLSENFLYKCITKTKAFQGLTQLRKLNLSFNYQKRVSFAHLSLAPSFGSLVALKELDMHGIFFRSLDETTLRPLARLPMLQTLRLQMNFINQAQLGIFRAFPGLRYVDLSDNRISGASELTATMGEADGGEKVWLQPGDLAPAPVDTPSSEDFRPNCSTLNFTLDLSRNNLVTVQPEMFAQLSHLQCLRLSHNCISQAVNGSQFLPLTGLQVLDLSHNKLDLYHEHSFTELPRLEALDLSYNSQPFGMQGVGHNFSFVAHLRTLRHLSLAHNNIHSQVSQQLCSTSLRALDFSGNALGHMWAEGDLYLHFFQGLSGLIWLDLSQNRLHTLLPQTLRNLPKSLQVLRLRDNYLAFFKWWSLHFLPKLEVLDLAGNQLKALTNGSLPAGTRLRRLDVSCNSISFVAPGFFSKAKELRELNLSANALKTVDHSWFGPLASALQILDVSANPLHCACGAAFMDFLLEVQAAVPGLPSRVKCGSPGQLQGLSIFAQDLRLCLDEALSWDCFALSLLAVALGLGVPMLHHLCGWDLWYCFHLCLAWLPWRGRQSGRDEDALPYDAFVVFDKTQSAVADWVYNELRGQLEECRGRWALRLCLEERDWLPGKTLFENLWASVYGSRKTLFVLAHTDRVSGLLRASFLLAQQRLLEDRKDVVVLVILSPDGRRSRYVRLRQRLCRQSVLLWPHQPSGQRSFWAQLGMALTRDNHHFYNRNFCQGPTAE
Assay: TLR9 inhibition reporter assay (HEK-Blue cells, SEAP reporter, ODN2006 stimulation)
Conditions: HEK-Blue cells overexpressing human TLR9, SEAP reporter, ODN2006 5 nM
Text: TLR7/8/9 Inhibition Reporter Assays HEK-Blue™-cells (Invivogen) overexpressing human TLR7, TLR8 or TLR9 receptors were used for screening inhibitors of these receptors using an inducible SEAP (secreted embryonic alkaline phosphatase) reporter gene under the control of the IFN-β minimal promoter fused to five NF-κB and AP-1-binding sites. […]
Keep in mind that pIC50 stands for -log10 of concentration in molar terms.

Please fill in: pIC50 reported for Cc1c(-c2[nH]c3ccc(C4CCC(NCC(C)(C)O)CC4)cc3c2C(C)C)cn2ncnc2c1C (stereo not drawn) [Example 106] = 5.86

pIC50 measured on COc1cc(-c2[nH]c3ccc(C4CCC(N(C)OC)CC4)cc3c2C(C)C)cn2ncnc12 (stereo not drawn) [Example 99] = 4.82

Given item COc1cc(-c2[nH]c3ccc(C4CN(C(C)C)CCO4)cc3c2C(C)C)cn2ncnc12 (stereo not drawn) [Example 302] , the value recorded as its pIC50 is 5.59

Measured pIC50 of "CCCN1CC(c2ccc3[nH]c(-c4cn5cnnc5c(C)c4C)c(C(C)C)c3c2)C1" : 5.41

The compound COCCN1CCCC(c2ccc3[nH]c(-c4cc(OC)c5ncnn5c4)c(C(C)C)c3c2)C1 (stereo not drawn) [Example 251] showed pIC50 equal to 5.28

In plain terms, CNC(=O)CN1CC2CC(c3ccc4[nH]c(-c5cn6ncnc6c(C)c5C)c(C(C)C)c4c3)CC2C1 (stereo not drawn) has a documented pIC50 of 4.68

Form: compound = "Cc1c(-c2[nH]c3ccc(C4CNC4)cc3c2C(C)C)cn2ncnc2c1C" ; pIC50 = 5.69

Form field pIC50, entry Cc1cc(-c2[nH]c3ccc(C4CCC(NC5(C)COC5)CC4)cc3c2C(C)C)cn2ncnc12 (single isomer, unassigned) [Example 46] : 5.82

Looking up Cc1c(-c2[nH]c3ccc(C4CCC(NCC(=O)N(C)C)CC4)cc3c2C(C)C)cn(C)c(=O)c1C (stereo not drawn) [Example 480] , I see its pIC50 listed as 5.21

// recorded pIC50 for CNC1CCC(c2ccc3[nH]c(-c4cn5ncnc5c(C)c4C)c(C(C)C)c3c2)CC1 (stereo not drawn) [Example 91] : 5.57

Recorded pIC50 (compound COc1cc(-c2[nH]c3ccc(C4CCC(NC(=O)CN5CCOCC5)CC4)cc3c2C(C)C)cn2ncnc12 (stereo not drawn) [Example 142] ): 5.36

Field pIC50 (entry "COc1cc(-c2[nH]c3ccc(CCC4CN(CC(C)(C)O)C4)cc3c2C(C)C)cn2ncnc12" ) reads 5.59

In plain terms, CNCC(=O)N1CCOC(c2ccc3[nH]c(-c4cc(OC)c5ncnn5c4)c(C(C)C)c3c2)C1 (stereo not drawn) [Example 339] has a documented pIC50 of 6.06
